System: MS2 coat protein
Assay: apparent KD of MS2 coat protein; designed switch direction (-1 OFF switch, 1 ON switch): 1; higher = weaker reporter binding
Conditions: input ligand: FMN 200 uM
Binary classification by apparent KD of MS2 coat protein, with 50 nM as an inclusive lower bound for met; all other cases are not met.

Enquiry: // inclusive: apparent KD of MS2 coat protein at least 50 nM? input: GUAAAGAAUUAAGGAUAUUGAAUACAUAUGUUUAACAUGAGGAUCACCCAUGUGGGUUGCGGUAUCGAGAAGGUAAAAUAAAAG [Mat - Same State NG 2 - JL mod - D7] (Eterna round: R96, puzzle: Same State NG 2)
Return: met

Enquiry: // inclusive: apparent KD of MS2 coat protein at least 50 nM? input: GCUAGAAUUAAAGCCAACAUGAGGAUCACCCAUGUAUGUUGGCAGGAUAUCGUUUGCUUUGCAAACGAGAAGGGCCAUACUAGC [JL SSNG3 1.08] (Eterna round: R96, puzzle: Same State NG 3)
Return: not met

* * *

System: K4 kissing-loop RNA reporter
Assay: apparent KD of K4 kissing-loop reporter; higher = weaker reporter binding
Settings: Eterna round: R107; input ligand: theophylline 20 uM
reported-endpoint: apparent KD of K4 kissing-loop reporter (nM)
One number for each entry, in nM.

polymer-sequence	unit-text	apparent KD of K4 kissing-loop reporter
AAUACAGUGUCGGCCGCCACUGUAACAUGCCAUGAGACAUGAGACAUGAGUGAUGUUCAUGUAGACAGGACCGGGACUCAUGUAU [KL-SSTryp-B3 #analogue]	nM	370
GAUUCAGUGAUGUUGGAAGGCGAGCGGGAUACCAGCCGAGACUCAGGCCCUUGGCAGCCCACAUAUCCCAGGUAGAUAGUCGCUC [Same State - Theophylline A (Freestyle 10)]	nM	383
UAAUAUAAUCUGUCGUUUACAAUAUUUAGUCAGGAUAUCGUAUAUUCGAGAAGGGACACUAUCUAGUGAUGUUAGAUAUUUCUUU [JR_ExcFMNA_Sub014]	nM	67
GGGAGCAAAGCUCCCGGAUGCUAUUACCAGGAGGAUAUCUGGAAACAGAGAAGGCCUAAGCCAGUGAUGUUGGUUUCGAGCAUCC	nM	305
UGGCGAGUGAUGUUCGUUGUUGUAGUGUGUCGAGGACCGGUACGGCCGCCACUCGAGUUGGUUGUUGUUGUUGCUGUUGUUGCUG [#03 K4 Tryptophan A Same State]	nM	157

Provide apparent KD of K4 kissing-loop reporter for all items below, preserving their order.
1. CAAACUCUGACGGCCGCCACUAAUCGUGUAACAGUGAUGUUGUUACAUCAAAGAUGGGUUGCGUGUAGGACCGGGUCGACGCAAA [theeternabot_exclusion_KL_Trp_B_48]
2. UUGGCCCGGCCGGAAGGCCGGGCCUGCGAGCGAGGACCGGUACGGCCGCCACUCGGCGCAGUGAUGUUGCGUGGCCGCAAGGCCG [#2 Exclusion - Tryptophan A Attempt #1 (HarryS)]
3. UGUGUUUACCUGACUCAGUGAUGUUGAGAAGGAGCGUGAGAAAUCACAGGUAGGUCGCUCAACCUAAAUUCAGGUGAGCACUAAA
4. GAGAACUCUUACGAUACCAGCCGGAGUGAUGUUCCGCGCUUGGACGUAGUAACCCGCACCGGCCCUUGGCAGCGUGGAUCCUAUG [Bibiinor]
5. ACUUAGAAUGAAGGAUAUUGGUUACGAGGGCUAACCAAAACGGAUCACUUGUCCAGUGAUGUUGUCCAAGAAGGUCACGUUAAAC [theeternabot_exclusion_KL_FMN_B_44]
6. AAACGCUGGUGAAUAACACUAGCGAAUUCGCGAGGACCGGUACGGCCGCCACUCGCUAACUGCGAGUGAUGUUCGAUAAUAAAAU [Mat - Mod of OpenEnded 3 - D2]

Return:
1: 111; 2: 581; 3: 277; 4: 86.8; 5: 492; 6: 189

Provide apparent KD of K4 kissing-loop reporter for all items below, preserving their order.
1. AAACAUUGGUCUGAUACCAGCUUGAUCGGUAAACGAUCUACUGGAGUGAUGUUCCUAAAUAGCCCUUGGCAGCAGACCGAUGAAA [MAT - Same State Theophlline B - Mod of Eli - D6]
2. AAGUCACAGGCAGGAUAUGCUUAGUAUUAAGGCCAUAUAUACGUAUAGAGUGAUGUUUUGUACCAGGCAGAAGGGCUACAUCCGU [FMN B Excl V4 (+U)]
3. CCCUAAAUAUGCAGUGAUGUUGCAACUGAUACCAGUAUCGAAAGAUACCCUUGGCAGCGGAAAACCGCUACGUAAUUUAAUAGGG [Ex Theophylline A K4 20]
4. UGGACCAAGGAGUGAUGUUCCAUAUGUGAUACCAGCCACGAAAGUGGCCCUUGGCAGCACUGCCAGGACGAAAACGUCCGGUCCU [#SwitchBubble 13 #StaticStem #K4Early]
5. UCAUAUACCAGAAGGAGCGUGCAGGACGAAUUAAUCAUCGACCUUAGUGAUGUUAAGGACGCACAGGUAGGUCGCUGGUAUAUGA [Arg B SS t4]
6. UGACUGGACUGAAGGAGCGAGGACGGUCAUAGACCGAAAUCAGUGAUGUUGAAAGAUAAACCUCAGGUAGGUCGCAGUCUAGUCU [ArgBS 1 #SwitchBubble #StaticStem]
7. UUUCUACCGGGAAGGAGCGUGAAUGAUAAUGGAUAUAGUGAUGUUAUAUAUACGAACGAAUCGCAGGUAGGUCGCCCGGAUCACU [SSArgB.U]
8. CGGCGCGGCGCGGCCGCCACUGCGCCUGGGUGCUCGCCGAGUGAUGUUCGUCGGCGGUUGGGUGGCAGGACCGGGUGCCGGCCCG [BDazzled - #18 SS Tryptophan B]

Return:
1: 132; 2: 645; 3: 402; 4: 477; 5: 484; 6: 546; 7: 1480; 8: 1030

Provide apparent KD of K4 kissing-loop reporter for all items below, preserving their order.
1. UUACGGUCCUCGGCCGCCACUCAUAGUGAUGUUAUGCUGCCUGAAGGCACCGGACCUGGAUAUCAGAGGACCGGGAGGCCAUUCG [theeternabot_exclusion_KL_Trp_B_6]
2. GCCGUACGCAUGGAUACCAGCAAUUAUGCUCGUAUCCUAGUGAUGUUAGUGGCGAAUAUUUGCCCUUGGCAGCCAUGCGUACGGC
3. UGACUGGACUGAAGGAGCGCUGAACUCCUAGUGAUGUUAGGAAAACGAGACAAAGUCUCGAAGCAGGUAGGUCGCAGUCUAGUCU
4. UGAUACCAGACGGCCGCCACUCCCGCAGGUCAAAGACCUGCGAAGAAGGUUCUUUAGUGAUGUUGGAGGACCGGGUCUGGUAUCU [FiskerMod 21 - Jieux - Exclusion - Tryptophan B]

Return:
1. 560
2. 691
3. 138
4. 417

* * *

Tested on: K4 kissing-loop RNA reporter;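 note: bound reporter read as fluorescence of individual clusters on recovered sequencing chips by microscopy, with normalized cluster intensities fitted with a binding model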
Experiment: apparent KD of K4 kissing-loop reporter; higher = weaker reporter binding
Conditions: Eterna round: R107; input ligand: tryptophan 2.4 mM
reported-endpoint: apparent KD of K4 kissing-loop reporter (nM)
Answers are plain numbers, in nM.

Solved entries:
polymer-sequence	unit-text	apparent KD of K4 kissing-loop reporter
AGACUACUGAUAGGAUAUAACAUCCUAGUCGUAUACCGAAAGGUAUACGAUAUCCUUCUAGUGAUGUUAGAAGGGUCGGUAGUCA [Omei KL FMN B Exc B v10]	nM	98.4
GGAUCCACCAGUGAUGUUGGAGAAAACUUCAAGGAUAUGACGAAAGUCAGAAGGUGGUAGACUGGUCAAAGUCCGGUCGGAUCCA [FmnA10 U29+U66]	nM	194
AUUAAUAUCACGGCCGCCACUGAAUAUUGUUUUUAUAUUUAGAAUAAUUGCCAGUGAUGUUGGAUCAGGACCGGGUGAUUUUAUA [JR_SSTryptoB_Sub008]	nM	360
GGGAGCAAAGCUCCCGGAUGCUAUUACCAGGAGGAUAUCUGGAAACAGAGAAGGCCUAAGCCAGUGAUGUUGGUUUCGAGCAUCC	nM	274
UGACUACAUCCUAGUGAUGUUUAGGAUAUGUAGGAUAUGCUGAUAAGCAGAAGGACAGAAGGAAGUGAUGUUCUUAAAGUAGUCU [FmnAX 29 #DoubleAptamer #Double K4 #SwitchBubble #StaticStem]	nM	802

Provide apparent KD of K4 kissing-loop reporter for all items below, preserving their order.
1. UGAUAGGACAGAAGGAGCGGAAGUGAUGUUUCCAAAAGGCUAAGGUGUCAAAAGACACCCUUCCAGGUAGGUCGCUGUCCUAUCU
2. GGAGAGGUCUUGUUUGGAUGUGUUUAAUGGCGAGGACCGGUACGGCCGCCACUCGGGUGAUGUUAGUGAUGUUGAUGUUGUGAUG ['oo'mullin]
3. UUAUUAAUAACAGAUACCAGUCCAGAAUGAAUACUAUAGUGAUGUUAUAAUAAAGGGAAGGACCCUUGGCAGCUGUAAUAUAUUU [AstrosSSTheB#1]

Return:
1: 203; 2: 116; 3: 368
